- PROTOCOL_DESCRIPTION: Pharmacokinetic study of 5 compounds in rat plasma after oral administration of Zuogui Pill extract (HPLC-MS/MS, noncompartmental analysis)
- Assay type: in vivo, Female Sprague-Dawley rats
- CONDITION_DETAILS: osteoporosis rats (ovariectomized), oral Zuogui Pill extract 1.5 mL/100 g, n = 6
- Protocol: Female Sprague-Dawley rats (180–220 g) were purchased from Shanghai Laboratory Animal Centre (Shanghai, China). The rats were maintained in a standard environment (22 ± 1°C, 60 ± 10% relative humidity, and a 12 h light/dark cycle) for one week to acclimate and fed water and food ad libitum. Twenty-four rats were divided randomly into […] and treated through ovary enucleation to establish the model of osteoporosis. […]
# AUC0–∞ annotations
# output: bare number, implied unit h∗ng/mL

For orientation, consider the following solved cases.
{"COMPOUND": "O=Cc1ccc(O)c(O)c1", "UNIT_ABBREV": "h∗ng/mL", "AUC0–∞": 72.28}
{"COMPOUND": "COC(=O)C1=CO[C@@H](O[C@@H]2O[C@H](CO)[C@@H](O)[C@H](O)[C@H]2O)[C@@H]2[C@@H](C)[C@@H](O)C[C@H]12", "UNIT_ABBREV": "h∗ng/mL", "AUC0–∞": 17998.56}
{"COMPOUND": "O=C(/C=C/c1ccc(O)c(O)c1)O[C@@H]1C[C@](O)(C(=O)O)C[C@@H](O)[C@H]1O", "UNIT_ABBREV": "h∗ng/mL", "AUC0–∞": 489.67}

AUC0–∞ measured on OCC1=C[C@@H](O)[C@@H]2C=CO[C@@H](O[C@@H]3O[C@H](CO)[C@@H](O)[C@H](O)[C@H]3O)[C@H]12 = 155.64

AUC0–∞ measured on COC(=O)C1=CO[C@@H](O[C@@H]2O[C@H](CO)[C@@H](O)[C@H](O)[C@H]2O)[C@@H]2[C@H](C)O[C@@H](O)C[C@H]12 [Morroniside, morroniside] = 1741.55

----------
- PROTOCOL_DESCRIPTION: Pharmacokinetic study of 5 compounds in rat plasma after oral administration of Zuogui Pill extract (HPLC-MS/MS, noncompartmental analysis)
- Assay type: in vivo, Female Sprague-Dawley rats
- CONDITION_DETAILS: female, Sprague-Dawley, rat, po, 1.5 mL/100 g, osteoporotic rats with kidney-yang-deficiency, oral Zuogui Pill extract 1.5 mL/100 g, n = 6, read-out: MRT0–t
Mark Satisfied only when MRT last stays strictly below 5 h. Values equal to the cut-off are Not satisfied.

In: Decide: MRT last of OCC1=C[C@@H](O)[C@@H]2C=CO[C@@H](O[C@@H]3O[C@H](CO)[C@@H](O)[C@H](O)[C@H]3O)[C@H]12 [Aucubin, aucubin] strictly below 5 h?
Out: Satisfied

In: Decide: MRT last of O=C(/C=C/c1ccc(O)c(O)c1)O[C@@H]1C[C@](O)(C(=O)O)C[C@@H](O)[C@H]1O [Chlorogenic acid, chlorogenic acid] strictly below 5 h?
Out: Satisfied

In: Decide: MRT last of COC(=O)C1=CO[C@@H](O[C@@H]2O[C@H](CO)[C@@H](O)[C@H](O)[C@H]2O)[C@@H]2[C@@H](C)[C@@H](O)C[C@H]12 [Loganin, loganin] strictly below 5 h?
Out: Not satisfied

In: Decide: MRT last of COC(=O)C1=CO[C@@H](O[C@@H]2O[C@H](CO)[C@@H](O)[C@H](O)[C@H]2O)[C@@H]2[C@H](C)O[C@@H](O)C[C@H]12 [Morroniside, morroniside] strictly below 5 h?
Out: Satisfied

In: Decide: MRT last of O=Cc1ccc(O)c(O)c1 [Protocatechuic aldehyde, protocatechuic aldehyde] strictly below 5 h?
Out: Satisfied

----------
- PROTOCOL_DESCRIPTION: Pharmacokinetic study of 5 compounds in rat plasma after oral administration of Zuogui Pill extract (HPLC-MS/MS, noncompartmental analysis)
- Assay type: in vivo, Female Sprague-Dawley rats
- CONDITION_DETAILS: female, Sprague-Dawley, rat, po, 1.5 mL/100 g, normal rats, oral Zuogui Pill extract 1.5 mL/100 g, n = 6, read-out: CL_F_obs (converted)
Mark Fulfilled only when CL/F stays strictly below 20 mL/min/kg. Values equal to the cut-off are Not fulfilled.

Some solved entries appear below for comparison.
{"MOLECULE": "OCC1=C[C@@H](O)[C@@H]2C=CO[C@@H](O[C@@H]3O[C@H](CO)[C@@H](O)[C@H](O)[C@H]3O)[C@H]12 [Aucubin, aucubin]", "CATEGORY_LABEL": "Not fulfilled"}
{"MOLECULE": "COC(=O)C1=CO[C@@H](O[C@@H]2O[C@H](CO)[C@@H](O)[C@H](O)[C@H]2O)[C@@H]2[C@@H](C)[C@@H](O)C[C@H]12 [Loganin, loganin]", "CATEGORY_LABEL": "Fulfilled"}
{"MOLECULE": "O=C(/C=C/c1ccc(O)c(O)c1)O[C@@H]1C[C@](O)(C(=O)O)C[C@@H](O)[C@H]1O [Chlorogenic acid, chlorogenic acid]", "CATEGORY_LABEL": "Fulfilled"}
{"MOLECULE": "COC(=O)C1=CO[C@@H](O[C@@H]2O[C@H](CO)[C@@H](O)[C@H](O)[C@H]2O)[C@@H]2[C@H](C)O[C@@H](O)C[C@H]12 [Morroniside, morroniside]", "CATEGORY_LABEL": "Not fulfilled"}

# evaluate next
In: Decide: CL/F of O=Cc1ccc(O)c(O)c1 [Protocatechuic aldehyde, protocatechuic aldehyde] strictly below 20 mL/min/kg?
Out: Fulfilled

----------
# Stability, Autosampler at 4°C for 24 h, Mean annotations
- PROTOCOL_DESCRIPTION: Stability of analytes in rat plasma (QC samples) under storage conditions
- CONDITION_DETAILS: low QC (2, 40, 8, 1, 0.1 ng/mL for chlorogenic acid, loganin, morroniside, aucubin, protocatechuic aldehyde), n = 5
# output: bare number, implied unit %

{"MOLECULE": "COC(=O)C1=CO[C@@H](O[C@@H]2O[C@H](CO)[C@@H](O)[C@H](O)[C@H]2O)[C@@H]2[C@H](C)O[C@@H](O)C[C@H]12 [Morroniside, morroniside]", "UNIT_ABBREV": "%", "RECORDED_MEASUREMENT": 89.6}
{"MOLECULE": "O=Cc1ccc(O)c(O)c1", "UNIT_ABBREV": "%", "RECORDED_MEASUREMENT": 88.4}
{"MOLECULE": "COC(=O)C1=CO[C@@H](O[C@@H]2O[C@H](CO)[C@@H](O)[C@H](O)[C@H]2O)[C@@H]2[C@@H](C)[C@@H](O)C[C@H]12", "UNIT_ABBREV": "%", "RECORDED_MEASUREMENT": 94.6}

Now look at this one.
Stability, Autosampler at 4°C for 24 h, Mean measured on OCC1=C[C@@H](O)[C@@H]2C=CO[C@@H](O[C@@H]3O[C@H](CO)[C@@H](O)[C@H](O)[C@H]3O)[C@H]12 = 88.6

----------
# log10 of Cmax annotations
- PROTOCOL_DESCRIPTION: Pharmacokinetic study of 5 compounds in rat plasma after oral administration of Zuogui Pill extract (HPLC-MS/MS, noncompartmental analysis)
- Format: in vivo, Female Sprague-Dawley rats
- CONDITION_DETAILS: female, Sprague-Dawley, rat, po, 1.5 mL/100 g, normal rats, oral Zuogui Pill extract 1.5 mL/100 g, n = 6
Heads up: the numbers are on a log10 scale; they represent Cmax in ng/mL.

For orientation, consider the following solved cases.
{"MOLECULE": "COC(=O)C1=CO[C@@H](O[C@@H]2O[C@H](CO)[C@@H](O)[C@H](O)[C@H]2O)[C@@H]2[C@H](C)O[C@@H](O)C[C@H]12 [Morroniside, morroniside]", "log10 of Cmax": 3.24}
{"MOLECULE": "COC(=O)C1=CO[C@@H](O[C@@H]2O[C@H](CO)[C@@H](O)[C@H](O)[C@H]2O)[C@@H]2[C@@H](C)[C@@H](O)C[C@H]12", "log10 of Cmax": 4.13}
{"MOLECULE": "O=Cc1ccc(O)c(O)c1", "log10 of Cmax": 1.28}
{"MOLECULE": "OCC1=C[C@@H](O)[C@@H]2C=CO[C@@H](O[C@@H]3O[C@H](CO)[C@@H](O)[C@H](O)[C@H]3O)[C@H]12", "log10 of Cmax": 1.93}

log10 of Cmax measured on O=C(/C=C/c1ccc(O)c(O)c1)O[C@@H]1C[C@](O)(C(=O)O)C[C@@H](O)[C@H]1O = 2.54

----------
- PROTOCOL_DESCRIPTION: Pharmacokinetic study of 5 compounds in rat plasma after oral administration of Zuogui Pill extract (HPLC-MS/MS, noncompartmental analysis)
- Format: in vivo, Female Sprague-Dawley rats
- CONDITION_DETAILS: osteoporosis rats (ovariectomized), oral Zuogui Pill extract 1.5 mL/100 g, n = 6
Mark Condition met only when AUC0–t stays strictly below 400 h∗ng/mL. Values equal to the cut-off are Condition not met.

Some solved entries appear below for comparison.
{"COMPOUND": "O=C(/C=C/c1ccc(O)c(O)c1)O[C@@H]1C[C@](O)(C(=O)O)C[C@@H](O)[C@H]1O", "CATEGORY_LABEL": "Condition not met"}
{"COMPOUND": "COC(=O)C1=CO[C@@H](O[C@@H]2O[C@H](CO)[C@@H](O)[C@H](O)[C@H]2O)[C@@H]2[C@@H](C)[C@@H](O)C[C@H]12", "CATEGORY_LABEL": "Condition not met"}
{"COMPOUND": "COC(=O)C1=CO[C@@H](O[C@@H]2O[C@H](CO)[C@@H](O)[C@H](O)[C@H]2O)[C@@H]2[C@H](C)O[C@@H](O)C[C@H]12 [Morroniside, morroniside]", "CATEGORY_LABEL": "Condition not met"}
{"COMPOUND": "O=Cc1ccc(O)c(O)c1", "CATEGORY_LABEL": "Condition met"}

# evaluate next
In: Decide: AUC0–t of OCC1=C[C@@H](O)[C@@H]2C=CO[C@@H](O[C@@H]3O[C@H](CO)[C@@H](O)[C@H](O)[C@H]3O)[C@H]12 strictly below 400 h∗ng/mL?
Out: Condition met

Value source: paper PMC10045483
